Reference source for all entries: patent US9079913B2

test: In vitro microsomal stability, human; assay type: in vitro ADME; conditions: human liver microsomes, NADPH, 45 min
Examples of compounds with documented % of compound remaining when incubated in human liver microsomes with NADPH follow.
Measured endpoint: % of compound remaining when incubated in human liver microsomes with NADPH

Compound	Assay result
CC(C)(C)C[C@H]1N[C@@H](C(=O)NCC[C@H](O)CN2CC[C@@H](O)C2)[C@H](c2cccc(Cl)c2)[C@@]12C(=O)Nc1cc(Cl)c(F)cc12	40.08%
CC(C)(C)C[C@H]1N[C@@H](C(=O)NC2CCC(O)CC2)[C@H](c2cccc(Cl)c2F)[C@@]12C(=O)Nc1cc(Cl)ccc12 (stereo partly shown)	42.57%
CC(C)(C)C[C@H]1N[C@@H](C(=O)N[C@H]2CC[C@@H](O)C2)[C@H](c2cccc(Cl)c2F)[C@@]12C(=O)Nc1cc(Cl)ccc12	0.00%
CC(O)C(O)CCNC(=O)[C@@H]1N[C@H](CC(C)(C)C)[C@]2(C(=O)Nc3cc(Cl)c(F)cc32)[C@H]1c1cccc(Cl)c1 (stereo partly shown)	13.25%
CC(C)(C)C[C@H]1N[C@@H](C(=O)NC2CCC(NS(C)(=O)=O)CC2)[C@H](c2cccc(Cl)c2F)[C@@]12C(=O)Nc1cc(Cl)ccc12 (stereo partly shown) [MI-771]	0.00%
CC(C)(C)C[C@H]1N[C@@H](C(=O)NCC[C@H](O)CN2CCCC2)[C@H](c2cccc(Cl)c2)[C@@]12C(=O)Nc1cc(Cl)c(F)cc12	55.85%
CC(C)(C)C[C@H]1N[C@@H](C(=O)NC2CCC(NS(C)(=O)=O)CC2)[C@H](c2cccc(Cl)c2F)[C@@]12C(=O)Nc1cc(Cl)ccc12 (stereo partly shown) [MI-772]	63.28%
CC(C)(C)C[C@H]1N[C@@H](C(=O)NCC[C@H](O)CNC(C)(C)C)[C@H](c2cccc(Cl)c2)[C@@]12C(=O)Nc1cc(Cl)c(F)cc12	41.18%
CC(C)(C)C[C@H]1N[C@@H](C(=O)N[C@H]2CC[C@@H](O)C2)[C@H](c2cccc(Cl)c2)[C@@]12C(=O)Nc1cc(Cl)c(F)cc12	1.42%
CC(C)(C)C[C@H]1N[C@@H](C(=O)NCCC(C)(O)CO)[C@H](c2cccc(Cl)c2)[C@@]12C(=O)Nc1cc(Cl)c(F)cc12 (stereo partly shown)	54.52%

----------
assay: In vitro microsomal stability, rat; assay type: in vitro ADME; conditions: rat liver microsomes, NADPH, 10 min
Measured endpoint: % of compound remaining when incubated in rat liver microsomes with NADPH (%)

Compound	Assay result
CC(O)C(O)CCNC(=O)[C@@H]1N[C@H](CC(C)(C)C)[C@]2(C(=O)Nc3cc(Cl)c(F)cc32)[C@H]1c1cccc(Cl)c1 (stereo partly shown) [MI-519-31]	65.69
CC(C)(C)C[C@H]1N[C@@H](C(=O)NCC[C@H](O)CN2CCCC2)[C@H](c2cccc(Cl)c2)[C@@]12C(=O)Nc1cc(Cl)c(F)cc12 [MI-519-28]	87.59
CC(C)(C)C[C@H]1N[C@@H](C(=O)NCC[C@H](O)CN2CC[C@@H](O)C2)[C@H](c2cccc(Cl)c2)[C@@]12C(=O)Nc1cc(Cl)c(F)cc12 [MI-519-29]	84.91
CC(C)(C)C[C@H]1N[C@@H](C(=O)NC2CCC(O)CC2)[C@H](c2cccc(Cl)c2F)[C@@]12C(=O)Nc1cc(Cl)ccc12 (stereo partly shown) [MI-773]	60.00
CC(C)(C)C[C@H]1N[C@@H](C(=O)N[C@H]2CC[C@@H](O)C2)[C@H](c2cccc(Cl)c2)[C@@]12C(=O)Nc1cc(Cl)c(F)cc12 [MI-519-27]	31.78
CC(C)(C)C[C@H]1N[C@@H](C(=O)NC2CCC(NS(C)(=O)=O)CC2)[C@H](c2cccc(Cl)c2F)[C@@]12C(=O)Nc1cc(Cl)ccc12 (stereo partly shown) [MI-771]	7.59
CC(C)(C)C[C@H]1N[C@@H](C(=O)NC2CCC(NS(C)(=O)=O)CC2)[C@H](c2cccc(Cl)c2F)[C@@]12C(=O)Nc1cc(Cl)ccc12 (stereo partly shown) [MI-772]	91.15
CC(C)(C)C[C@H]1N[C@@H](C(=O)NCCC(C)(O)CO)[C@H](c2cccc(Cl)c2)[C@@]12C(=O)Nc1cc(Cl)c(F)cc12 (stereo partly shown) [MI-758]	92.93
CC(C)(C)C[C@H]1N[C@@H](C(=O)NCC[C@H](O)CNC(C)(C)C)[C@H](c2cccc(Cl)c2)[C@@]12C(=O)Nc1cc(Cl)c(F)cc12 [MI-519-24]	86.33
CC(C)(C)C[C@H]1N[C@@H](C(=O)N[C@H]2CC[C@@H](O)C2)[C@H](c2cccc(Cl)c2F)[C@@]12C(=O)Nc1cc(Cl)ccc12 [MI-519-51]	2.84
